# measurement-description: blockers of RIG-like receptor reporter activation – cell-based, Sendai virus stimulus, luciferase, 10K MLSCN set, TLR/RLR signaling modifier project, primary screen (AID 602276);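 also: firefly luciferase from ISG56 promoter only with Renilla not read in this screen; 0% = Sendai virus plus DMSO and 100% = medium plus DMSO without virus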
# condition-summary: HEK293 RL24 IRF3 luciferase reporter, at 10 µM, active compounds read high

# molecule, unit-text, inhibition
rows = [
    ("COc1cccc(CNC(=O)C2CCN(c3cnccn3)CC2)c1", "%", 18.8),
    ("O=C(Nc1ccc(NC(=O)C2CC2)cn1)c1ccccc1Cl", "%", -65.9),
    ("CC(C)N(C=O)C1(C(=O)NC2CCCCC2)CCCCC1", "%", 10.2),
    ("O=S(=O)(c1cccc(S(=O)(=O)N2CCC(N3CCCCC3)CC2)c1)N1CCOCC1", "%", 7.24),
    ("CC(=O)N1CCC2(CC1)CC(=O)c1cc(OCC(=O)NCc3ccc(C)cc3)ccc1O2", "%", 6.64),
    ("O=C(Cn1nc(Cc2cccnc2)c2ccccc2c1=O)Nc1ccc2c(c1)OCO2", "%", 10.9),
    ("CCOc1cc(C)c(C(C)C)cc1S(=O)(=O)N1CCN(C)CC1", "%", -9.48),
    ("Cc1cc(C)n2c(SCC(=O)Nc3cc(C)on3)nnc2n1", "%", 11),
    ("CCOC(=O)C1CCCN(C(=O)Cc2ccc(OC)c(OC)c2)C1 (stereo unspecified)", "%", 18.6),
    ("COc1cc(NC(=O)Nc2cccc(C(C)=O)c2)cc(OC)c1OC", "%", 14),
    ("COc1ccc(N2CCC(CNS(=O)(=O)c3cccc(C(F)(F)F)c3)C2)cc1 (stereo unspecified)", "%", 7.7),
]

----------
# target-of-assay: Alpha-2C adrenergic receptor (Homo sapiens)
# measurement-description: compounds altering alpha2C-coupled GIRK flux – cell-based, HEK293 alpha2C/GIRK1/2, thallium flux, primary screen (AID 624);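 also: slope of fluorescence ratio to pre-addition baseline per second over 15 to 24 s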
# condition-summary: thallium flux BTC fluorescence, at 10 µM, actives lie on both sides

# compound, slope
measured = [
    ("CCN(CC)C(=O)C1CCN(CC2CC=CCC2)CC1 (configuration not stated)", 0.00638),
    ("CCCCOc1ccccc1NC(=O)c1ccco1", 0.00466),
    ("Cc1occc1-c1nnc(SCC(=O)N2CCOCC2)n1Cc1ccco1", 0.00496),
    ("COc1ccccc1N(C)S(=O)(=O)c1ccc(C(=O)NC2=NCCS2)cc1", 0.00655),
    ("COc1ccc(S(=O)(=O)Cc2ccc(C(=O)N3CCN(Cc4ccccc4)CC3)o2)cc1", 0.0068),
    ("CCc1ccccc1NC(=O)C(CC)Sc1nc2cc3c(cc2c(=O)n1Cc1ccco1)OCO3 (configuration not stated)", 0.00667),
    ("N#Cc1cnn(Cc2ccc(Cl)cc2)c1N", 0.00625),
    ("CC1(C)OC(=O)N(c2cccnc2)C1(C)O (configuration not stated)", 0.00628),
    ("CC(Oc1ccccc1)C(=O)Nc1ccc(S(=O)(=O)NCC2CCCO2)cc1 (configuration not stated)", 0.00888),
    ("CCOC(=O)c1c2n(c3ccc(O)cc13)CCCCC2", 0.00489),
    ("CCC(=O)Nc1nn(C)c2nc3c(C)cccc3cc12", 0.00513),
    ("COCCNC(=O)CCCCCN1C(=O)CCC1=O", 0.00625),
]
